measurementProtocol: absolute recovery over mixed-bed multilayer solid-phase extraction; higher = better recovery
studyConditions: nanopure water; enrichment method: SPE
Returns 1 (yes) if the recorded absolute recovery is greater than or equal to 90%, and 0 (no) otherwise.

{"columns": ["molecule", "qualitativeLabel"],
 "data": [
  ["CC(C)Nc1nc(N)nc(O)n1 [Atrazin-desethyl-2-hydroxy]", "0 (no)"],
  ["Cc1c(NC=O)c(=O)n(-c2ccccc2)n1C [4-Formylaminoantipyrin (=4-FAA)]", "1 (yes)"],
  ["OCC(O)C[NH+]1CCN(c2ccccc2)CC1 (stereo not given)", "1 (yes)"],
  ["c1ccc2[nH]nnc2c1", "1 (yes)"],
  ["N#Cc1nn(-c2c(Cl)cc(C(F)(F)F)cc2Cl)c(N)c1S(=O)C(F)(F)F (stereo not given)", "1 (yes)"],
  ["CC(CCC(=O)[O-])C1CCC2C3C(O)CC4CC(O)CCC4(C)C3CCC12C (stereo not given)", "0 (no)"],
  ["CCOP(=O)(OCC)OCC", "0 (no)"],
  ["CNC(=O)Oc1cc(C)c(SC)c(C)c1", "1 (yes)"],
  ["CCC1OC(=O)C(C)C(OC2CC(C)(OC)C(O)C(C)O2)C(C)C(OC2OC(C)CC([NH2+]C)C2O)C(C)(O)CC(C)C[NH+](C)C(C)C(O)C1(C)O (stereo not given)", "1 (yes)"],
  ["CCC(C)c1cc([N+](=O)[O-])cc([N+](=O)[O-])c1[O-] (stereo not given)", "1 (yes)"],
  ["Cc1cccc(C)c1OCC(C)[NH3+] (stereo not given)", "0 (no)"],
  ["C[NH2+]CC(O)c1ccc(O)c(O)c1 (stereo not given) [Epinephrine]", "0 (no)"],
  ["NC(=O)N1c2ccccc2C2OC2c2ccccc21 (stereo not given) [Carbamazepin-10-11-epoxid]", "1 (yes)"],
  ["CC(C)OC(=O)C(C)(C)Oc1ccc(C(=O)c2ccc(Cl)cc2)cc1", "0 (no)"],
  ["CC(C)(C)C(=O)C(Oc1ccc(Cl)cc1)n1ccnc1 (stereo not given)", "1 (yes)"],
  ["C#CCN1C(=O)COc2cc(F)c(N3C(=O)C4=C(CCCC4)C3=O)cc21", "1 (yes)"],
  ["O=C([O-])COc1ccc(Cl)cc1Cl", "1 (yes)"],
  ["CCCN(CCC)C(=O)SCc1ccccc1", "0 (no)"],
  ["CN1C(=O)CC(C)(c2ccccc2)C1=O (stereo not given) [Methsuximide]", "1 (yes)"],
  ["O=C([O-])C(c1ccccc1)C1CCCC[NH2+]1 (stereo not given)", "1 (yes)"],
  ["COC(=O)C1C2CC3c4[nH]c5cc(OC)ccc5c4CC[NH+]3CC2CC(OC(=O)c2cc(OC)c(OC)c(OC)c2)C1OC (stereo not given)", "0 (no)"],
  ["CC(=O)Nc1ccc(S(=O)(=O)[N-]c2cc(C)on2)cc1", "1 (yes)"],
  ["Cc1cc(C2CC2)nc(Nc2ccccc2)n1", "1 (yes)"],
  ["O=C1CC(C(=O)[O-])CC(=O)C1=C([O-])C1CC1 (stereo not given) [Trinexapac (free acid)]", "0 (no)"],
  ["COC(=O)N(OC)c1ccccc1COc1ccn(-c2ccc(Cl)cc2)n1", "1 (yes)"],
  ["[O-][n+]1nc(-n2ccnc2)nc2ccc(Cl)cc21 [Triazoxide]", "0 (no)"],
  ["CCNc1nc(O)nc(NC(C)C)n1 [Atrazin-2-Hydroxy]", "1 (yes)"],
  ["C[NH+](C)CC(c1ccc(O)cc1)C1(O)CCCCC1 (stereo not given)", "1 (yes)"],
  ["OC(Cc1ccccc1Cl)(Cn1cncn1)C1(Cl)CC1 (stereo not given)", "1 (yes)"]
]}
